# Target Entity: human P2X3 receptor (Homo sapiens)
# Sequence (P56373 1-397): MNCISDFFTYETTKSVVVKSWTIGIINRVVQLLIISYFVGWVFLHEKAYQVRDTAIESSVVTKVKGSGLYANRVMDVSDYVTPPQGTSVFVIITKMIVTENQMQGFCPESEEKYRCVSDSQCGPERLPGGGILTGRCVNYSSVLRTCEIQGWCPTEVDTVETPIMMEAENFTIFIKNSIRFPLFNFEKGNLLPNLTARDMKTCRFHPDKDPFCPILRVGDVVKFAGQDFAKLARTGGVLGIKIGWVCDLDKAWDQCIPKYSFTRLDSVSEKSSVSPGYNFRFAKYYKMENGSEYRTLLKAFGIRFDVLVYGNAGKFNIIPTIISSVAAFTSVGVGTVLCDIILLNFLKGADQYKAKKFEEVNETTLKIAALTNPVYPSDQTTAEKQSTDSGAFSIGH
# Assay Method Text: Intracellular calcium measurement to assess antagonist activity at human P2X3 receptors (hP2X3 CHO), photina luminescence
# Type: cell-based
# Parameters: expressed in transfected cells; host or cells: Chinese hamster ovary (CHO) cells
# Protocol Conditions: column 2), CHO cells, agonist α,β-methylene-ATP at EC50
label 1 if IC50 is below 70 nM. label 0 if not; exact matches included in label 0.

> print(dat)
                                   compound    group
1  CCc1cc2n(CC(=O)Nc3ccc(F)cn3)c3c(c(=O)n2n1)CN(C1CCNC1)C3=O (single isomer, unassigned) [Example 277]  label 0
2  CC(C)N1Cc2c(n(CC(=O)Nc3ccc(F)cn3)c3cc(C4CCNC4)nn3c2=O)C1=O.Cl (racemic) [Example 235]  label 0
3  COC[C@H](C)N1Cc2c(n(CC(=O)Nc3ccc(F)cn3)c3cc(C(=O)Nc4cccnn4)nn3c2=O)C1=O [Example 216]  label 1

Lab log: compare recorded IC50 with 70 nM; is it strictly lower for CC[C@H](C)N1Cc2c(n(CC(=O)Nc3ccc(F)cn3)c3cc(C)nn3c2=O)C1=O [Example 53] ?
label 0
